Each record here notes measured inhibition at 1 µM.
- Subject Of Test: human dopamine transporter (Homo sapiens, UniProt Q01959)
- Construct: expressed in transfected cells
- Sequence (Q01959 whole entry): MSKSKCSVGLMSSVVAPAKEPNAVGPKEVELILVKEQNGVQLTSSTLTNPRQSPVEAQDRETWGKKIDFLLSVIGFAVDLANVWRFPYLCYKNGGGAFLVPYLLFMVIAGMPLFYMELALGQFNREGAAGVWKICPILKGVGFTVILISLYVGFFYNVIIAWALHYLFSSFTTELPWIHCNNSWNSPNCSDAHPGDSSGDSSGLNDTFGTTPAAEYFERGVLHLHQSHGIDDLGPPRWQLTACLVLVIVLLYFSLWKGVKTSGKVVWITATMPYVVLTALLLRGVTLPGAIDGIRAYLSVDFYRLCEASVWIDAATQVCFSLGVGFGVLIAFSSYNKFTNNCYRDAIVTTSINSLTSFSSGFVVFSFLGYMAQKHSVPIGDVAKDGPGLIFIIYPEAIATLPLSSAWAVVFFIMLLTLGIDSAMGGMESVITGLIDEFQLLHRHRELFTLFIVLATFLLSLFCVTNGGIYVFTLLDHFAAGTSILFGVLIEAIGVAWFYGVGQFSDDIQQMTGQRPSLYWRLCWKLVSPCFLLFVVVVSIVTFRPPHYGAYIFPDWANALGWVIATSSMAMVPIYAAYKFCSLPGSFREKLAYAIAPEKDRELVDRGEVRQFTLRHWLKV
- Protocol: Inhibitory action on human dopamine transporter ([3H]-dopamine uptake in CHO cells)
- Type: cell-based
- Particulars: CHO, compound 1 μM; relative to inhibitory activity of 100 μM Nomifensine as 100%; read-out: inhibitory rate (%)
- Description: SRα promoter contained in pTB1411 described in JP-A-H5-076385 was cleaved with restriction enzyme […](manufactured by TAKARA BIO INC.), blunt-ended, further cleaved with restriction enzyme EcoRI (manufactured by TAKARA BIO INC.), and fragmented. […] The inhibitory activity of each compound (10 μM) was calculated as a relative activity value based on the inhibitory activity of 100 μM Nomifensine (dopamine transporter inhibitor) as 100%. […]
Where a name gives a salt, the structure may show the parent alone.
Write the value in % as a bare number.

Would you kindly share the measured inhibition at 1 µM for OC[C@H]1OCCNC[C@@H]1c1ccc(Cl)c(Cl)c1 [Example 487, monohydrochloride] ?
14

Would you kindly share the measured inhibition at 1 µM for CC(=O)NC[C@H]1CNCCO[C@@H]1c1ccc(Cl)c(Cl)c1 (racemic) [Example 6, monohydrochloride] ?
33

Would you kindly share the measured inhibition at 1 µM for OC[C@@]1(c2ccc(Cl)c(Cl)c2)CCNCCO1 [Example 47, monohydrochloride] ?
9

Would you kindly share the measured inhibition at 1 µM for O=c1nc(-c2ccccc2S(=O)(=O)C[C@@H]2CNCCO[C@H]2c2ccc(Cl)c(Cl)c2)[nH]o1 [Example 167, monohydrochloride] ?
88

Would you kindly share the measured inhibition at 1 µM for OCC1CNCCOC1c1ccc(Cl)c(F)c1 (stereo not drawn) ?
10

Would you kindly share the measured inhibition at 1 µM for O=C1CNC(=O)N1C[C@@]1(c2ccc(Cl)c(Cl)c2)CCNCCO1 [Example 439, monohydrochloride] ?
7
